Values compiled from the supplement of paper PMC12645437.

- assayed_system: T1, CRBN, Q96SW2;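 also: pooled lentiviral library of zinc finger degron-EGFP fusions in mCherry-positive Jurkat cells, FACS-sorted after compound exposure, with degron abundance counted by next-generation sequencing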
- T1 chain: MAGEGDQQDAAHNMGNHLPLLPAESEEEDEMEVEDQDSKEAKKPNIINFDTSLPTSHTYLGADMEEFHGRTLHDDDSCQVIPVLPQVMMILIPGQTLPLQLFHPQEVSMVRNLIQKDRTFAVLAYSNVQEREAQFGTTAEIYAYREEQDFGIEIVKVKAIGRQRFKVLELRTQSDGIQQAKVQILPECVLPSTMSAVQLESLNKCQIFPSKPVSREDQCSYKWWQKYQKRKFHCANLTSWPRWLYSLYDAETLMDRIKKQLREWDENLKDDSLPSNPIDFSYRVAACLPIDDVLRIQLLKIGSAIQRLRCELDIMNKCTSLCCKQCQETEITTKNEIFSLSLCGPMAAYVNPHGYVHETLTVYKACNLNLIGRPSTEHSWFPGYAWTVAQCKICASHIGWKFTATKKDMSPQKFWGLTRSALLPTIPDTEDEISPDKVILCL
- procedure_details: log2 fold change of degron read counts, EGFP-low vs EGFP+ sorted cells (limma voom), compound-induced degradation; higher = more compound-induced degradation of the degron-EGFP fusion; degrons are variants of IKZF1/3 zinc finger 2; compound dose not given here
- conditions: Jurkat; 18 h; compound: compound 22 (5-morpholino-thalidomide)
Whole data set: some 8,300 sequences, median “log2 fold change of degron read counts, EGFP-low vs EGFP+ sorted cells (limma voom), compound-induced degradation” near -1.1, cut for the highest 2% near 3.2. This excerpt belongs to a sample that is enriched for the highest values.
Hi there, I'd appreciate the recorded log2 fold change of degron read counts for every entry that follows.
Field format: numeric only.

The sequence identified as FVCNQCGADFTQKGNLLRHIKL [46F_47V_49N_50Q_52G_53A_54D_55F_67L_, Q9UKT9] registered its log2 fold change of degron read counts at -3.35

Entry FYCPICGATFTQKGNLLRHIKL [46F_47Y_49P_50I_52G_53A_54T_55F_67L_, Q9UKT9] , log2 fold change of degron read counts reported as 3.57

The recorded log2 fold change of degron read counts for FQCNICGATFTQKGNLLRHIKL [46F_47Q_49N_50I_52G_53A_54T_55F_67L_, Q9UKT9] is 1.47

The sequence listed as FWCPICGATFTQKGNLLRHIKL [46F_47W_49P_50I_52G_53A_54T_55F_67L_, Q9UKT9] shows log2 fold change of degron read counts equal to 3.57

Quick note, log2 fold change of degron read counts for FKCNICGAWFTQKGNLLRHIKL [46F_47K_49N_50I_52G_53A_54W_55F_67L_, Q9UKT9] landed at -2.92

log2 fold change of degron read counts in this record for FKCNICGATFTQKGNLLRHIKL [46F_47K_49N_50I_52G_53A_54T_55F_67L_, Q9UKT9] : -2.52

Value of measured log2 fold change of degron read counts for the entry FGCNICGATFTQKGNLLRHIKL [46F_47G_49N_50I_52G_53A_54T_55F_67L_, Q9UKT9] : 1.89

Value of measured log2 fold change of degron read counts for the entry FVCDVCGADFTQKGNLLRHIKL [46F_47V_49D_50V_52G_53A_54D_55F_67L_, Q9UKT9] : -1.98

Lab book: log2 fold change of degron read counts of FTCPICGATFTQKGNLLRHIKL [46F_47T_49P_50I_52G_53A_54T_55F_67L_, Q9UKT9] noted as 2.5
